The measurements presented in this section are drawn from ChEMBL document CHEMBL1201862.

# Tested on: HT-29
# TEST_METHOD_NOTES: NCI tumour cell line growth inhibition, 48 h
The source made the active and inactive calls. Cut-off read from the data, not from the text of the source: active = GI50 up to about 1.1 µM and inactive = higher.
Consider the following compounds; for each one, report its GI50.

Please report GI50 for the following compound: N#CC(C(=O)CCCC(=O)Nc1ccc(Cl)cc1Cl)c1ccccc1 (stereo unspecified) > 100 µM (inactive)

Fill in GI50 for record CSc1cnc2ccccc2c1Sc1cn(C)c2ccccc2c1=O 58.5 µM (inactive)

Consider the compound COc1cc2c(OC)c(c1)CCCC1=CC(=O)C=C(CCC2)C1=O and give its recorded GI50. 44.9 µM (inactive)

Answer with the recorded GI50 of O=c1[nH]c2cc3cccnc3c(Cl)c2nc1CBr only. 19.5 µM (inactive)

Determine from records and report GI50 for N#Cc1c2c(c(N3CCOCC3)n3c1nc1ccccc13)CCCC2 16.4 µM (inactive)

Determine its reported GI50: COc1ccc(OC)c(C#Cc2ccc(OC)c(C(=O)NCCc3ccc(F)cc3)c2)c1 3.17 µM (inactive)
